Taken from ChEMBL document CHEMBL1134380.

molecular target: Proteinase-activated receptor 1 (Homo sapiens); test: Binding affinity against Protease-activated receptor (PAR-1) using [3H]-s-(p-F-Phe)-homoarginine-L-homoarginine-KY-NH2, 10 nM (Kd= 15 nM)
Sequence (P25116 whole entry): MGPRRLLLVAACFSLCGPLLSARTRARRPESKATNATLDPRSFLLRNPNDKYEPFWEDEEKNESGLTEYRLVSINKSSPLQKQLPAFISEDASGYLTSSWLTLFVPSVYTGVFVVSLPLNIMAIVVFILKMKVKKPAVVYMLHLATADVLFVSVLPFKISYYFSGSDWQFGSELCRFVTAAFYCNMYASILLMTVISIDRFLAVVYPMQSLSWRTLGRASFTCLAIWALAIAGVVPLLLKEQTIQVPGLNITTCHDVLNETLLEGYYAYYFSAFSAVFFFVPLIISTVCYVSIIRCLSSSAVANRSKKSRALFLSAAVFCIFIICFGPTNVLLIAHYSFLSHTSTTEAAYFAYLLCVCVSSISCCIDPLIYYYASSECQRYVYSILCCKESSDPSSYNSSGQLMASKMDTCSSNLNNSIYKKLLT
pIC50: −log10 of the molar value.
We use 6 as the dividing line for pIC50: on or above the line is Satisfied, below is Not satisfied.

Before answering, review these 3 worked examples.
                                  structure                           target_of_assay  classification
0  COc1ccc(C[C@H](NC(=O)Nc2ccc3c(CN4CCCC4)cn(Cc4ccc(F)cc4)c3c2)C(=O)N[C@@H](CCCN=C(N)N)C(=O)NCc2ccccc2)cc1  Proteinase-activated receptor 1 (Homo sapiens)   Not satisfied
1  COc1ccc(C[C@H](NC(=O)Nc2ccc3c(CN4CCCC4)cn(Cc4ccc(OC(F)(F)F)cc4)c3c2)C(=O)N[C@@H](CCCN=C(N)N)C(=O)NCc2ccccc2)cc1  Proteinase-activated receptor 1 (Homo sapiens)   Not satisfied
2  COc1ccc(C[C@H](NC(=O)Nc2ccc3c(CNC4CCCC4)cn(Cc4ccc(F)cc4)c3c2)C(=O)N[C@@H](CCCN=C(N)N)C(=O)NCc2ccccc2)cc1  Proteinase-activated receptor 1 (Homo sapiens)   Not satisfied

### Prompt Assess whether reported pIC50 for "N=C(N)NCCC[C@H](NC(=O)[C@H](Cc1ccc(F)c(F)c1)NC(=O)Nc1ccc2c(CN3CCCC3)cn(Cc3c(Cl)cccc3Cl)c2c1)C(=O)NCc1ccncc1" sits at 6 or higher.
### Response Satisfied
